test system: PriA–SSB C-terminal tail interaction (Klebsiella pneumoniae); test: blocks PriA binding to SSB C-terminal tail, primary screen, biochemical, AlphaScreen (AID 1272365); details: AlphaScreen SSBct-PriA binding, biotinylated peptide; at 33 µM;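 also: plate controls were negative control peptide for no effect and reference peptide for full effect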
About 2,600 (0.6%) of roughly 430,000 compounds were called active. Rule as the data show it: active = inhibition mostly above about 37% (no sharp cut-off); inactive = mostly below about 20%. The sample holds actives, similar compounds and a random draw of the others, so the mix is not that of the screen.
# valid calls are true (1) = active, false (0) = inactive; nothing else

Exam item: Please indicate how the test categorized `O=C1C(=O)N(CN2CCN(C(c3ccccc3)c3ccccc3)CC2)c2ccccc21` .
Marked response: false (0)

Exam item: GET /call?item= CN(C)C(CNC(=O)Nc1ccc2c(c1)OCO2)c1ccsc1 (stereo not drawn) returns the recorded outcome of this test.
Marked response: false (0)

Exam item: Would you mind telling me which call this test gave `O=C(Nc1cnc(N2CCN(c3ccccc3)CC2)nc1)c1c(F)cccc1F` ?
Marked response: false (0)

Exam item: How was `O=C(Oc1ccccc1[N+](=O)[O-])N(c1ccccc1)c1ccccc1` classified in this test?
Marked response: true (1)

Exam item: Write down the call the test reported for this molecule. Item: `COc1ccc(S(=O)(=O)NCCn2nc(-c3ccncc3)ccc2=O)cc1F`
Marked response: false (0)

Exam item: Which outcome was assigned to N#CC1=C(N)Oc2c(ccc3cccnc23)C1c1ccncc1 (stereo not drawn) in this test?
Marked response: true (1)

Exam item: Please state the recorded outcome for this molecule: `COC(=O)c1sccc1S(=O)(=O)N1C2CCCC1COC2`
Marked response: false (0)

Exam item: Name the outcome recorded for `O=C(COc1ccccc1[N+](=O)[O-])NC1CC1` in the assay.
Marked response: false (0)

Exam item: State the result this test recorded for `O=C(Nc1nnc(C2CC2)s1)c1ccccn1` .
Marked response: true (1)

Exam item: Assay result, entry CCc1ccc(S(=O)(=O)N2CCOC(c3ccccc3)C2)s1 (stereo not drawn) — outcome?
Marked response: false (0)

Exam item: What outcome does the record of this test show for CSCC(C)(O)CNS(=O)(=O)c1cccc2ccccc12 (stereo not drawn) ?
Marked response: false (0)

Exam item: Please indicate how the test categorized `CC1CCN(c2ccc(C(=O)Nc3nnc(C4CC4)s3)cc2[N+](=O)[O-])CC1` .
Marked response: false (0)

Exam item: What was the test verdict on `O=C(Nc1nncs1)c1ccccn1` ?
Marked response: true (1)

Exam item: Please state the recorded outcome for this molecule: `COc1ccc(NC(=O)CCSc2ccc(C)cc2)c([N+](=O)[O-])c1`
Marked response: true (1)

Exam item: Identify the outcome logged in this assay for the molecule shown: `Cc1ccc(OCC(=O)Oc2ccccc2[N+](=O)[O-])cc1`
Marked response: false (0)

Exam item: Please share the test call associated with `COc1ccc(C(=O)Nc2ccc(S(C)(=O)=O)cc2)cc1` .
Marked response: false (0)

Exam item: Record lookup: outcome of this test for `COc1ccc(N2CCN(c3ccc([N+](=O)[O-])nc3)CC2)cc1` ?
Marked response: false (0)

Exam item: Tell me the assay call for `COc1ccc(-c2cc(C3CCN(c4ncccc4[N+](=O)[O-])CC3)[nH]n2)cc1` please.
Marked response: true (1)

Exam item: Hi, do you know how `O=C(NCc1cccnc1-c1cccs1)c1ccccn1` came out in this test?
Marked response: false (0)

Exam item: How did this test come out for `O=C(Nc1ccccc1)N1CCC(c2nnc(C3CC3)s2)CC1` ?
Marked response: false (0)

Exam item: Give the logged outcome of this assay for the following molecule: `COc1ccc(OCC(=O)NN=C(C)CC(=O)Nc2ccc(OC)cc2[N+](=O)[O-])cc1`
Marked response: false (0)

Exam item: Identify the outcome logged in this assay for the molecule shown: `N#Cc1nccnc1N1CCC(CNC(=O)c2cc(=O)c3ccccc3o2)CC1`
Marked response: false (0)

Exam item: Any idea what this test logged for `CC(=NNC(=O)c1c(Cl)c(C)nn1C)c1cccc(NC(=O)C2CCCC2)c1` ?
Marked response: false (0)
